Target: T1, anti-CD28 scFv (VH - linker 1 - VL) (biotinylated (site not given))
T1 construct: Biotinylated scFv captured on neutravidin coated plates in the panning ELISA
T1 sequence (scFv, as listed by the source): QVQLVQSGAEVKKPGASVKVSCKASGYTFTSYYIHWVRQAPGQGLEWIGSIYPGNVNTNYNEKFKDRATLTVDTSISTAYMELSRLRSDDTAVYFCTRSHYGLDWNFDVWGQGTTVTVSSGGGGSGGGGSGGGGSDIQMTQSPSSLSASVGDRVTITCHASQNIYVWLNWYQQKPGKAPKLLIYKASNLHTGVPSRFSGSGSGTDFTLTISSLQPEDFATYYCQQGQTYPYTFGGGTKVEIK
Assay: phage ELISA; biotinylated anti-CD28 scFv on neutravidin plate, clonal phage supernatant, anti-M13 HRP
Where no end group is shown, it is not given here.
observation type: CD28 scFv signal
# print the numeric value only

Request: Need CD28 scFv signal of MDWCPRDLWSLCFY (cysteine pairing not given here; also: displayed on phage as fusion to pIII, linker not given here) [Phage-94] , thanks.
Result: 2.57

Request: Need CD28 scFv signal of MDWCPRYLWTVCFS (cysteine pairing not given here; also: displayed on phage as fusion to pIII, linker not given here) [Phage-93] , thanks.
Result: 2.58

Request: Need CD28 scFv signal of MDWCPRTLWAYCFN (cysteine pairing not given here; also: displayed on phage as fusion to pIII, linker not given here) [Phage-96] , thanks.
Result: 2.57

Request: Need CD28 scFv signal of MDWCPRYLWFECFA (cysteine pairing not given here; also: phage-displayed pIII fusion, pIII and linker not given here) [Phage-114] , thanks.
Result: 2.5
